- System: primary neural stem cells (NSCs)
- Procedure details: Differentiation of primary neural stem cells, βIII-tubulin fluorescence and Neurite Outgrowth Assay
- Type: cell-based, SD rats
- Measurement setup: 100 µg/mL, 4 days, significance vs blank control group
Test readout: Number of neurite terminals

Solved entries (count: 5):
- H-APGTL-OH [Compound 34, H-Ala-Pro-Gly-Thr-Leu-OH]: ** (**p < 0.01)
- H-ALPAPGTL-NH2 [Compound 10, H-Ala-Leu-Pro-Ala-Pro-Gly-Thr-Leu-NH2]: ** (**p < 0.01)
- H-PAPGT-OH [Compound 27, H-Pro-Ala-Pro-Gly-Thr-OH]: * (*p < 0.05)
- Ac-ALPAPGTL-NH2 [Compound 11, Ac-Ala-Leu-Pro-Ala-Pro-Gly-Thr-Leu-NH2]: ** (**p < 0.01)
- H-PIASQHLNLAPAPGTI-OH [Compound 23]: * (*p < 0.05)

# Number of neurite terminals of H-QLPAPGTL-OH [Compound 22, H-Gln-Leu-Pro-Ala-Pro-Gly-Thr-Leu-OH] = * (*p < 0.05)
